# measurement target: T1, huMICB*005 alpha 3-his (human)
# T1 construct: whole construct entry: GS, alpha 3 domain, GNS, His8; also called MICB005.His; MICB*005 alpha3 construct
# T1 chain: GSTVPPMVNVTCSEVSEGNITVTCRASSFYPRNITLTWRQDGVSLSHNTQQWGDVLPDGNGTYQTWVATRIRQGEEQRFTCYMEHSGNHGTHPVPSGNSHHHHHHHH
# test method notes: SPR, Biacore 8K, antibody on Protein A chip
Recorded pKd, one value per entry.
Keep it numeric: pKd is minus log10 of the concentration in mol/L.

Would you please look over these solved cases?
1D5v13 (antibody, IgG1, V domains shown, humanized variant of 1D5) VH: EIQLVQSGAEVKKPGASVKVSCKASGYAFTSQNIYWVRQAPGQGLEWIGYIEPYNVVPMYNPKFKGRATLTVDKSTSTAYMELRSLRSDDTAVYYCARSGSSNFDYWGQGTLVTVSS VL: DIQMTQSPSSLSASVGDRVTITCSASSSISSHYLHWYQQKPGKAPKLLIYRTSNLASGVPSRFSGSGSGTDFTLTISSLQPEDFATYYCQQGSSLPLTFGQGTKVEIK : 8.83
1D5v8 (antibody, IgG1, V domains shown, humanized variant of 1D5) VH: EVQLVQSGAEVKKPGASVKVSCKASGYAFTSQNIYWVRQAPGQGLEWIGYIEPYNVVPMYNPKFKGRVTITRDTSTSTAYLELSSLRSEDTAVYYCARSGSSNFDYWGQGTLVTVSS VL: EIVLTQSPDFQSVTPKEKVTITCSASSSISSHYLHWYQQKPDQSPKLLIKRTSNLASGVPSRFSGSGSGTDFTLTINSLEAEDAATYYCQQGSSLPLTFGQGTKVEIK : 7.73
6E1.1.12 (antibody, V domains shown, mouse variable domains) VH: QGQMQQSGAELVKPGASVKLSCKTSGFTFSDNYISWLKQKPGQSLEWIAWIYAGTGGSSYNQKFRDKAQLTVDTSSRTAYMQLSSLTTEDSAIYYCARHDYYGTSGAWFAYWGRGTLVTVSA VL: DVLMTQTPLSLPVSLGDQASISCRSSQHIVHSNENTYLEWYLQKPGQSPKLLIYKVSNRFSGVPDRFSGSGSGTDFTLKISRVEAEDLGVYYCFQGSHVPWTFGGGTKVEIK : 8.53
1D5v19 (antibody, IgG1, V domains shown, humanized variant of 1D5) VH: EVQLVQSGAEVKKPGASVKVSCKASGYAFTSQNIYWVRQAPGQGLEWIGYIEPYNVVPMYNPKFKGRATLTVDKSTSTAYLELSSLRSEDTAVYYCARSGSSNFDYWGQGTLVTVSS VL: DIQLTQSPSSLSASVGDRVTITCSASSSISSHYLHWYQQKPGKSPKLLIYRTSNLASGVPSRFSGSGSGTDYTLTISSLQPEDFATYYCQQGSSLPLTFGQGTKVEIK : 8.82

Kindly consider the entry below.
Query :: Name the recorded pKd of the binder listed here: 1D5v26 (antibody, IgG1, V domains shown, humanized variant of 1D5) VH: EVQLVQSGAEVKKPGASVKVSCKASGYAFTSQNIYWVRQAPGQGLEWIGYIEPYNVVPMYNPKFKGRVTITRDKSTSTAYLELSSLRSEDTAVYYCARSGSSNFDYWGQGTLVTVSS VL: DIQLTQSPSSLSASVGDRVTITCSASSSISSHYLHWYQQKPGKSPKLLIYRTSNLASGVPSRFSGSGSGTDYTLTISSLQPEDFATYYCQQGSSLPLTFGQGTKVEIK
Result :: 8.15
